- Tested on: Mtb Pks13-TE domain (wild-type) (Mycobacterium tuberculosis, UniProt I6X8D2)
- Sequence (I6X8D2 1451-1733): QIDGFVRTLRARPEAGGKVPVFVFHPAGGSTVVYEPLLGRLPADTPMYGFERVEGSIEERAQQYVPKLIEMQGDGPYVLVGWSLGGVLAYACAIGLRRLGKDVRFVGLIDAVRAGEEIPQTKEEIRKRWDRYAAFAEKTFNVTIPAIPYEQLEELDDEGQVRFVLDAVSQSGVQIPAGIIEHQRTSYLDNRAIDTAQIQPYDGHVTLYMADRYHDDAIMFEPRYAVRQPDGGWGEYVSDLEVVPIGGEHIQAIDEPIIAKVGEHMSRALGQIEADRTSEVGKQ
- Measurement notes: biochemical
- Format: biochemical
- Reported conditions: Pks13-TE, 20 μM 4-MUH; read-out: IC50
Result type: IC50

Field: example entries. Status: answers known.
1) CCOC(=O)c1c(-c2ccccc2)oc2ccc(O)c(C)c12 [compound 12]	> 20 µM
2) CCOC(=O)c1c(-c2ccccc2)oc2ccc(O)c(CN3CCC(N4CCCCC4)CC3)c12 [compound 98]	> 20 µM

Consider now this further compound.
Entry CNC(=O)c1c(-c2ccccc2)oc2ccc(O)c(CCN3CCS(=O)(=O)CC3)c12 [compound 138] , IC50 reported as > 40 µM

* * *

- Tested on: Mtb Pks13-TE domain (wild-type) (Mycobacterium tuberculosis, UniProt I6X8D2)
- Measurement notes: biochemical
- Assay type: biochemical
- Reported conditions: Pks13-TE, 20 μM 4-MUH; read-out: IC50
Result type: IC50 (µM)
Give bare numbers, in µM.

1. CCOC(=O)c1c(-c2ccccc2)oc2ccc(OC)c(Cc3ccccc3)c12 [compound 19]	50
2. CN(C)CCc1c(O)ccc2oc(-c3ccc(O)cc3)c(C(=O)N(C)C)c12 [compound 210]	12
3. CCOC(=O)c1c(-c2ccccc2)oc2cccc(CN3CCCCC3)c12 [compound 24]	2
4. CCOC(=O)c1c(-c2ccccc2)oc2ccc(O)c(CCN3CCCC(O)C3)c12 (stereo not shown) [compound 151]	10

Consider now this further compound.
Entry CNC(=O)c1c(-c2ccccc2)oc2cc(OCC(=O)OC)cc(CN3CCCCC3)c12 [compound 93] , IC50 reported as 10

* * *

- System: Mtb strain mc^27000
- Measurement notes: microbe, parasite or virus in culture
- Format: cell-based, Mycobacterium tuberculosis
- Reported conditions: Mycobacterium tuberculosis, Mtb mc^27000, liquid medium, 96-well plates; read-out: MIC
Assignment: determine reported MIC for the given compounds.
Give bare numbers, in µM.

1) CNC(=O)c1c(-c2ccc(OC)cc2)oc2ccc(O)c(CN3CCCCC3)c12 [compound 31]	1.1

Entry CCOC(=O)c1c(-c2ccccc2)oc2ccc(O)c(CCCN3CC(F)C3)c12 [compound 199] , MIC reported as 1.2

* * *

- Tested on: Mtb Pks13-TE domain (wild-type) (Mycobacterium tuberculosis)
- Measurement notes: biochemical
- Format: biochemical
- Reported conditions: Pks13-TE, 20 μM 4-MUH; read-out: IC50
pIC50: −log10 of the molar value.
Assignment: determine reported pIC50 for the given compounds.

Field: example entries. Status: answers known.
1. CCOC(=O)c1c(-c2ccc(F)cc2)oc2cc(O)cc(CCNC(=O)C(C)N)c12 (stereo not drawn)	< 4.40
2. CNC(=O)c1c(-c2ccccc2)oc2ccc(O)c(CCN3CCCC(CO)C3)c12 (stereo not drawn)	< 4.70

Entry CCOC(=O)c1c(-c2ccc(F)cc2)oc2cc(O)cc(CCNC(=O)OCc3ccccc3)c12 , pIC50 reported as < 4.40

* * *

- Tested on: Mtb strain mc^27000
- Measurement notes: microbe, parasite or virus in culture
- Format: cell-based, Mycobacterium tuberculosis
- Reported conditions: Mycobacterium tuberculosis, Mtb mc^27000, liquid medium, 96-well plates; read-out: MIC
Result type: MIC

Field: example entries. Status: answers known.
1) CCOC(=O)c1c(-c2ccccc2)oc2cc(NC(C)=O)cc(CN3CCCCC3)c12 [compound 30]	20 to 27 µM
2) CCOC(=O)c1c(-c2ccccc2)oc2cc(O)cc(CN3CCC(NC(C)=O)CC3)c12 [compound 70]	> 40 µM

Entry CCOC(=O)c1c(-c2ccccc2)oc2ccc(O)c(CCN[C@@H](Cc3c[nH]cn3)C(=O)O)c12 [compound 245] , MIC reported as > 40 µM
